Hello, the source for this data is patent US11951100B2, in case you need it.

# measurement_protocol: Equilibrium solubility by HPLC, Form C, ambient temperature
# Assay type: physicochemical
# measurement_context: pH 1.0 buffer, pH 1, simulated gastric fluid, thermodynamic from solid, pH 1.0 buffer; Final pH: 0.89; read-out: Solubility by HPLC
experimental_readout: solubility (µg/mL)
Give the value, in units of µg/mL, as a plain number.

If you can, please state the reported solubility value of CC(=O)N1CCc2c(C(=O)N3CCC(c4ccc(F)c(F)c4C(F)(F)F)CC3)n[nH]c2C1 [Compound 1] .
1.2

----------
# measurement_protocol: Equilibrium solubility by HPLC, Form C, ambient temperature
# Type: physicochemical
# measurement_context: Peceol, oil or lipid, thermodynamic from solid, Peceol; read-out: Solubility by HPLC
experimental_readout: solubility (µg/mL)
Give the value, in units of µg/mL, as a plain number.

If you can, please state the reported solubility value of CC(=O)N1CCc2c(C(=O)N3CCC(c4ccc(F)c(F)c4C(F)(F)F)CC3)n[nH]c2C1 .
1300
